Data provenance: patent US20240083839A1

System: SirT1 levels in N2a-E4 cells
Experiment: SirT1 levels by AlphaLISA in ApoE4-transfected N2a cells
Format: cell-based, murine
recorded-endpoint: SirT1 SμM

compound | SirT1 SμM
CC(C)(Cc1ccc(Br)cc1)NC(=O)[C@@H](N)CCC(=O)O | A (A >20%)
CC(C)(Cc1ccc(Cl)cc1)OC(=O)CCN | A (A >20%)
CC(N)C(=O)OC1(Cc2ccc(Cl)cc2)CCC1 (centres unmarked) | A, A (A >20%)
CN1Cc2ccccc2C[C@H](N)C1=O | A, A (A >20%)
C[C@H](N)C(=O)Nc1cccc2ccccc12 | A (A >20%)

Data request: May I ask what SirT1 SμM has been recorded for CC(C)(Cc1ccc(Cl)cc1)OC(=O)C1CCCCN1 (centres unmarked) ?
Data returned: A, A (A >20%)

Data request: May I ask what SirT1 SμM has been recorded for O=C1NCN[C@H]1Cc1ccc(Cl)cc1 [MP-72, (S)-5-(4-chlorobenzyl)imidazolidin-4-one] ?
Data returned: A, A (A >20%)

Data request: May I ask what SirT1 SμM has been recorded for C[C@H](N)C(=O)NC(C)(C)Cc1ccncc1.Cl ?
Data returned: A, A (A >20%)

###

System: SirT1 levels in N2a-E4 cells
Assay: SirT1 levels by AlphaLISA in ApoE4-transfected N2a cells
Format: cell-based, murine
recorded-endpoint: SirT1 SμM

compound | SirT1 SμM
CC(N)C(=O)OC(C)(C)Cc1ccc(Cl)cc1 (stereo not shown) [A03, alaproclate] | A (A >20%)
CC(N)C(=O)NC(C)(C)Cc1ccc(F)c(F)c1 (stereo not shown) | A (A >20%)
CC(N)C(=O)OC(C)(C)Cc1ccc(C(F)(F)F)cc1.Cl (stereo not shown) | A, A (A >20%)
C#Cc1ccc(CC(C)(C)OC(=O)[C@H](C)N)cc1 | A (A >20%)
CC(C)(Cc1ccc(F)c(F)c1)NC(=O)[C@@H](N)c1ccccc1 | A (A >20%)
C[C@@H](N)C(=O)NC(C)(Cc1ccc(F)cc1)Cc1ccc(F)cc1 | A, A (A >20%)

Data request: # value lookup — system SirT1 levels in N2a-E4 cells, readout SirT1 SμM, item C[C@H](N)C(=O)NC(C)(C)Cc1cccc(C(F)(F)F)c1
Data returned: A, A (A >20%)

Data request: # value lookup — system SirT1 levels in N2a-E4 cells, readout SirT1 SμM, item C[C@H](N)C(=O)NC(C)(C)Cc1ccc(Cl)cc1
Data returned: A (A >20%)

###

Tested on: SirT1 levels in N2a-E4 cells
Experiment: SirT1 levels by AlphaLISA in ApoE4-transfected N2a cells
Assay type: cell-based, murine
recorded-endpoint: SirT1 SμM

compound | value-reported
C[C@H](NC(=O)OC(C)(C)C)C(=O)OC(C)(C)Cc1ccc(C(F)(F)F)cc1 | a, a (a <250%)
CC(N)C(=O)OC(Cc1ccc(Cl)cc1)c1ccccc1 (centres unmarked) | A, A (A >20%)
CC(C)C(N)C(=O)OC(C)(C)Cc1ccc(Cl)cc1 (centres unmarked) | A (A >20%)
O=C1NCc2ccccc2C[C@@H]1N[C@@H](c1ccccc1)[C@H](O)c1ccccc1 (stereo in doubt) | a, a (a <250%)
C[C@H](N)C(=O)O[C@@H]1CCC[C@@H]1c1ccc(Cl)cc1.Cl (single isomer, unassigned) | A (A >20%)
C[C@H](N)C(=O)OC1(Cc2ccc(Cl)cc2)CCCC1 [MP-34, 1-(4-chlorobenzyl)cyclopentyl alaninate] | A, A (A >20%)
C[C@H](N)C(=O)NC(C)(C)Cc1cc(F)cc(F)c1 | A, A (A >20%)
CC(C)(N)C(=O)NCCc1ccc(Cl)cc1 | A (A >20%)

// below: SirT1 SμM requested for another compound
Data request: May I ask what SirT1 SμM has been recorded for O=C(N[C@H]1Cc2ccccc2CNC1=O)OCc1ccccc1 ?
Data returned: a, a (a <250%)
